Examples of compounds with documented IC50 follow.
- Test system: Colo320 human colon adenocarcinoma cell line (doxorubicin-resistant)
- PROTOCOL: MTT assay, cytotoxicity at pH 6 and 7
- Type: cell-based
- CONDITION SUMMARY: Colo320; pH 6; 72 h incubation; read-out: IC50

COMPOUND | IC50 [µM]
Cc1c(C)c(C)[c-](C)c1C.[Cl-].[Rh+2][O]c1cccc2cccnc12.c1ccncc1 [[RhCp*(8HQH−1)Cl] +Py] | 6.2
CC1=C(C)C(C)C(C)=C1C.Cn1ccnc1.[Rh+3].c1cnc2c(c1)ccc1cccnc12 [[RhCp*(phen)(mim)]^2+] | 71.7
Cc1c(C)c(C)[c-](C)c1C.Clc1ccc(COC(Cn2ccnc2)c2ccc(Cl)cc2Cl)cc1.[Cl-].[Rh+2][O]c1cccc2cccnc12 (racemic) [[RhCp*(8HQH−1)Cl] +econ] | 4.52

----------
- Test system: Colo320 human colon adenocarcinoma cell line (doxorubicin-resistant)
- PROTOCOL: MTT assay, cytotoxicity at pH 6 and 7
- Type: cell-based
- CONDITION SUMMARY: Homo sapiens, COLO 320; Colo320; pH 6; 72 h incubation; read-out: IC50

COMPOUND | READOUT UNIT | RELATION OPERATOR | IC50
COc1cccc2c1C(=O)c1c(O)c3c(c(O)c1C2=O)C[C@@](O)(C(=O)CO)C[C@@H]3O[C@H]1C[C@H](N)[C@H](O)[C@H](C)O1 [doxorubicin, reference compound] | nM | = | 460
Cn1ccnc1 [mim, 1-methylimidazole, reference compound] | nM | > | 100000

----------
# pKa values compiled below
- PROTOCOL: physchem
- CONDITION SUMMARY: water with 0.10 M KCl

STRUCTURE SMILES | pKa
NCc1ccccc1 | 9.42
c1ccc2[nH]cnc2c1 | 5.44

----------
- System: S. aureus 272123 (MRSA)
- PROTOCOL: Antibacterial assay, MIC in 96-well plates at different pH
- Assay type: cell-based
- CONDITION SUMMARY: Staphylococcus aureus, 24 h, pH 6, after one day, read-out: MIC
MIC reference

COMPOUND | MIC
Cn1ccnc1 [mim, 1-methylimidazole, reference compound] | > 100 µM
O=P(O)(O)C(O)(Cn1ccnc1)P(=O)(O)O [zol, zoledronic acid, reference compound] | > 100 µM
Clc1ccc(COC(Cn2ccnc2)c2ccc(Cl)cc2Cl)cc1 (stereo not shown) [econ, econazole, reference compound] | 12.5 µM
c1cnc2c(c1)ccc1cccnc12 [phen, 1,10-phenanthroline, reference compound] | > 100 µM

----------
Recorded pKa of the coordinated water molecule values for a group of compounds are listed next.
- PROTOCOL: Proton dissociation constants of the coordinated water in [M(arene)(N,N/O)(H2O)]2+/+ complexes (UV-vis titration)
- CONDITION SUMMARY: I = 0.10 M (KCl); t = 25.0 °C; UV-vis

COMPOUND | pKa of the coordinated water molecule
Cc1c(C)c(C)[c-](C)c1C.NCCN.O.[Rh+3] [[RhCp*(en)(H2O)]2+] | 10.6
Cc1ccc(C(C)C)cc1.O.[Ru+2].c1cnc2c(c1)ccc1cccnc12 [[Ru(p-cym)(phen)(H2O)]2+] | 8.91
Cc1ccc(C(C)C)cc1.NCCN.O.[Ru+2] [[Ru(p-cym)(en)(H2O)]2+] | 9.03
Cc1ccc(C(C)C)cc1.O.[O-]c1cccc2cccnc12.[Ru+2] [[Ru(p-cym)(8HQH-1)(H2O)]+] | 9.31
Cc1c(C)c(C)[c-](C)c1C.O.[Rh+3].c1cnc2c(c1)ccc1cccnc12 [[RhCp*(phen)(H2O)]2+] | 10.05

----------
Each entry below carries its recorded MIC.
- Test system: E. coli ATCC 25922 (sensitive)
- PROTOCOL: Antibacterial assay, MIC in 96-well plates at different pH
- Type: cell-based
- CONDITION SUMMARY: Escherichia coli, ATCC25922, 24 h; E. coli sensitive; pH 8; after one day; read-out: MIC
MEASUREMENT KIND: MIC

COMPOUND | ASSAYED TARGET | MEASUREMENT KIND | VALUE REPORTED
Clc1ccc(COC(Cn2ccnc2)c2ccc(Cl)cc2Cl)cc1 (stereo not shown) [econ, econazole, reference compound] | E. coli ATCC 25922 (sensitive) | MIC | > 100 µM
O=P(O)(O)C(O)(Cn1ccnc1)P(=O)(O)O [zol, zoledronic acid, reference compound] | E. coli ATCC 25922 (sensitive) | MIC | > 100 µM
Cn1ccnc1 [mim, 1-methylimidazole, reference compound] | E. coli ATCC 25922 (sensitive) | MIC | > 100 µM
c1cnc2c(c1)ccc1cccnc12 [phen, 1,10-phenanthroline, reference compound] | E. coli ATCC 25922 (sensitive) | MIC | 25 µM

----------
Here the recorded MIC is given for each entry.
- System: E. coli 32313 (resistant)
- PROTOCOL: Antibacterial assay, MIC in 96-well plates at different pH
- Assay type: cell-based
- CONDITION SUMMARY: Escherichia coli, 24 h; E. coli resistant; pH 8; after one day; read-out: MIC
MEASUREMENT KIND: MIC

COMPOUND | ASSAYED TARGET | MEASUREMENT KIND | VALUE REPORTED
O=P(O)(O)C(O)(Cn1ccnc1)P(=O)(O)O [zol, zoledronic acid, reference compound] | E. coli 32313 (resistant) | MIC | > 100 µM
c1cnc2c(c1)ccc1cccnc12 [phen, 1,10-phenanthroline, reference compound] | E. coli 32313 (resistant) | MIC | 50 µM
Clc1ccc(COC(Cn2ccnc2)c2ccc(Cl)cc2Cl)cc1 (stereo not shown) [econ, econazole, reference compound] | E. coli 32313 (resistant) | MIC | > 100 µM
Cn1ccnc1 [mim, 1-methylimidazole, reference compound] | E. coli 32313 (resistant) | MIC | > 100 µM

----------
- System: E. coli 32313 (resistant)
- PROTOCOL: Antibacterial assay, MIC in 96-well plates at different pH
- Assay type: cell-based
- CONDITION SUMMARY: E. coli resistant; pH 8; after one day; read-out: MIC

COMPOUND | MIC
Cc1c(C)c(C)[c-](C)c1C.Cn1ccnc1.[O-]c1cccc2cccnc12.[Rh+3] [[RhCp*(8HQH−1)(mim)]^+] | > 100 µM
Cc1c(C)c(C)[c-](C)c1C.[Cl-].[Cl-].[Rh+3].c1cnc2c(c1)ccc1cccnc12 [[RhCp*(phen)Cl]Cl] | > 100 µM
Cc1c(C)c(C)[c-](C)c1C.[Rh+3].c1ccncc1.c1cnc2c(c1)ccc1cccnc12 [[RhCp*(phen)(Py)]^2+] | > 100 µM
Cc1c(C)c(C)[c-](C)c1C.[Cl][Rh+][O]c1cccc2cccnc12 [[RhCp*(8HQH−1)Cl]] | > 100 µM
Cc1c(C)c(C)[c-](C)c1C.Clc1ccc(COC(Cn2ccnc2)c2ccc(Cl)cc2Cl)cc1.[Cl-].[Rh+2][O]c1cccc2cccnc12 (racemic) [[RhCp*(8HQH−1)Cl] +econ] | 50 µM
Cc1c(C)c(C)[c-](C)c1C.Cn1ccnc1.[Rh+3].c1cnc2c(c1)ccc1cccnc12 [[RhCp*(phen)(mim)]^2+] | > 100 µM

----------
- Tested on: S. aureus ATCC 25923 (methicillin-susceptible)
- PROTOCOL: Antibacterial assay, MIC in 96-well plates at different pH
- Type: cell-based
- CONDITION SUMMARY: S. aureus sensitive; pH 7; after one day; read-out: MIC

COMPOUND | MIC
Cc1c(C)c(C)[c-](C)c1C.[Cl][Rh+][O]c1cccc2cccnc12 [[RhCp*(8HQH−1)Cl]] | 12.5 µM
Cc1c(C)c(C)[c-](C)c1C.[Cl-].[Cl-].[Rh+3].c1cnc2c(c1)ccc1cccnc12 [[RhCp*(phen)Cl]Cl] | >100 µM
Cc1c(C)c(C)[c-](C)c1C.Cn1ccnc1.[O-]c1cccc2cccnc12.[Rh+3] [[RhCp*(8HQH−1)(mim)]^+] | 12.5 µM
Cc1c(C)c(C)[c-](C)c1C.[Cl-].[Rh+2][O]c1cccc2cccnc12.c1ccncc1 [[RhCp*(8HQH−1)Cl] +Py] | 12.5 µM
Cc1c(C)c(C)[c-](C)c1C.Clc1ccc(COC(Cn2ccnc2)c2ccc(Cl)cc2Cl)cc1.[Cl-].[Rh+2][O]c1cccc2cccnc12 (racemic) [[RhCp*(8HQH−1)Cl] +econ] | 0.39 µM

----------
- System: E. coli 32313 (resistant)
- PROTOCOL: Antibacterial assay, MIC in 96-well plates at different pH
- Format: cell-based
- CONDITION SUMMARY: Escherichia coli, 24 h; E. coli resistant; pH 5; after one day; read-out: MIC

COMPOUND | MIC
c1cnc2c(c1)ccc1cccnc12 [phen, 1,10-phenanthroline, reference compound] | 50 µM
O=P(O)(O)C(O)(Cn1ccnc1)P(=O)(O)O [zol, zoledronic acid, reference compound] | > 100 µM
Clc1ccc(COC(Cn2ccnc2)c2ccc(Cl)cc2Cl)cc1 (stereo not shown) [econ, econazole, reference compound] | > 100 µM
Cn1ccnc1 [mim, 1-methylimidazole, reference compound] | > 100 µM
